# Tested on: Pseudomonas aeruginosa
# assay.comment: Antibacterial activity against Pseudomonas aeruginosa at 100 ug/well after 24 hrs by agar well diffusion method
# Assay type: functional
# applied.conditions: read-out: DIZ
Please mark true (1) if the recorded zone of inhibition at 100 µg/disc is equal to or greater than 20 mm, and false (0) if it falls below.

Use these answered entries as a reference point.
compound	system	assigned.category
O=S(=O)(c1ccccc1)c1c(-c2ccc(Cl)cc2)noc1-c1ccc(-c2onc(-c3ccc(Cl)cc3)c2S(=O)(=O)c2ccccc2)cc1	Pseudomonas aeruginosa	true (1)
COc1ccc(-c2noc(-c3ccc(-c4onc(-c5ccc(OC)cc5)c4S(=O)(=O)c4ccccc4)cc3)c2S(=O)(=O)c2ccccc2)cc1	Pseudomonas aeruginosa	false (0)
Cc1ccc(S(=O)(=O)c2c(-c3ccc(Cl)cc3)noc2-c2ccc(-c3onc(-c4ccc(Cl)cc4)c3S(=O)(=O)c3ccc(C)cc3)cc2)cc1	Pseudomonas aeruginosa	true (1)
O=S(=O)(c1ccccc1)c1c(-c2ccc(Cl)cc2)nn(-c2ccccc2)c1-c1ccc(-c2c(S(=O)(=O)c3ccccc3)c(-c3ccc(Cl)cc3)nn2-c2ccccc2)cc1	Pseudomonas aeruginosa	false (0)
O=S(=O)(c1ccc(Cl)cc1)c1c(-c2ccc(Cl)cc2)nn(-c2ccccc2)c1-c1ccc(-c2c(S(=O)(=O)c3ccc(Cl)cc3)c(-c3ccc(Cl)cc3)nn2-c2ccccc2)cc1	Pseudomonas aeruginosa	true (1)
COc1ccc(-c2noc(-c3ccc(-c4onc(-c5ccc(OC)cc5)c4S(=O)(=O)c4ccc(C)cc4)cc3)c2S(=O)(=O)c2ccc(C)cc2)cc1	Pseudomonas aeruginosa	false (0)
COc1ccc(-c2nn(-c3ccccc3)c(-c3ccc(-c4c(S(=O)(=O)c5ccccc5)c(-c5ccc(OC)cc5)nn4-c4ccccc4)cc3)c2S(=O)(=O)c2ccccc2)cc1	Pseudomonas aeruginosa	false (0)
O=S(=O)(c1ccc(Cl)cc1)c1c(-c2ccc(Cl)cc2)noc1-c1ccc(-c2onc(-c3ccc(Cl)cc3)c2S(=O)(=O)c2ccc(Cl)cc2)cc1	Pseudomonas aeruginosa	true (1)

Determine whether this compound has zone of inhibition at 100 µg/disc no lower than 20 mm: Cc1ccc(S(=O)(=O)c2c(-c3ccc(Cl)cc3)nn(-c3ccccc3)c2-c2ccc(-c3c(S(=O)(=O)c4ccc(C)cc4)c(-c4ccc(Cl)cc4)nn3-c3ccccc3)cc2)cc1 false (0)

* * *

# System: Staphylococcus aureus
# assay.comment: Antibacterial activity against Staphylococcus aureus at 50 ug/well after 24 hrs by agar well diffusion method
# Assay type: functional
# applied.conditions: read-out: DIZ
Documented zone of inhibition at 50 µg/disc across a set of compounds
Please state the figure in mm; there is no need to write the unit.

compound	unit.annotation	zone of inhibition at 50 µg/disc
O=S(=O)(c1ccc(Cl)cc1)C1C(c2ccc(Cl)cc2)=NOC1c1ccc(C2ON=C(c3ccc(Cl)cc3)C2S(=O)(=O)c2ccc(Cl)cc2)cc1 (stereo not drawn)	mm	14
COc1ccc(-c2noc(-c3ccc(-c4onc(-c5ccc(OC)cc5)c4S(=O)(=O)c4ccccc4)cc3)c2S(=O)(=O)c2ccccc2)cc1	mm	20

Would you kindly look at the next entry?
Entry O=S(=O)(c1ccccc1)c1c(-c2ccc(Cl)cc2)noc1-c1ccc(-c2onc(-c3ccc(Cl)cc3)c2S(=O)(=O)c2ccccc2)cc1 , zone of inhibition at 50 µg/disc reported as 31

* * *

# Tested on: Klebsiella pneumoniae
# assay.comment: Antibacterial activity against Klebsiella pneumoniae at 50 ug/well after 24 hrs by agar well diffusion method
# Format: functional
# applied.conditions: read-out: DIZ
Please mark label 1 if the recorded zone of inhibition at 50 µg/disc is equal to or greater than 20 mm, and label 0 if it falls below.

compound	assigned.category
O=S(=O)(c1ccc(Cl)cc1)c1c(-c2ccc(Cl)cc2)noc1-c1ccc(-c2onc(-c3ccc(Cl)cc3)c2S(=O)(=O)c2ccc(Cl)cc2)cc1	label 1
Cc1ccc(S(=O)(=O)c2c(-c3ccc(Cl)cc3)nn(-c3ccccc3)c2-c2ccc(-c3c(S(=O)(=O)c4ccc(C)cc4)c(-c4ccc(Cl)cc4)nn3-c3ccccc3)cc2)cc1	label 1
O=C(N[C@H](CO)[C@H](O)c1ccc([N+](=O)[O-])cc1)C(Cl)Cl [CHLORAMPHENICOL]	label 1
COc1ccc(-c2nn(-c3ccccc3)c(-c3ccc(-c4c(S(=O)(=O)c5ccc(Cl)cc5)c(-c5ccc(OC)cc5)nn4-c4ccccc4)cc3)c2S(=O)(=O)c2ccc(Cl)cc2)cc1	label 0
O=S(=O)(c1ccccc1)c1c(-c2ccc(Cl)cc2)nn(-c2ccccc2)c1-c1ccc(-c2c(S(=O)(=O)c3ccccc3)c(-c3ccc(Cl)cc3)nn2-c2ccccc2)cc1	label 1

With those in mind, consider the next compound.
Determine whether this compound has zone of inhibition at 50 µg/disc no lower than 20 mm: O=S(=O)(c1ccc(Cl)cc1)C1C(c2ccc(Cl)cc2)=NN(c2ccccc2)C1c1ccc(C2C(S(=O)(=O)c3ccc(Cl)cc3)C(c3ccc(Cl)cc3)=NN2c2ccccc2)cc1 (stereo unspecified) label 0
